Attribution: patent US11884747B2

# assay remarks: Pharmacokinetics after single i.v. injection
# Format: in vivo, cynomolgus monkeys
# measurement parameters: cynomolgus monkey, plasma, iv, 2 mg/kg; single i.v. injection; read-out: AUC0-120h
parameter measured: AUC(0-t) (µM·h)
One number for each entry, in µM·h.

Form field AUC(0-t), entry CC[C@H](C)[C@H](NC(=O)[C@H](N)Cc1ccc(O)cc1)C(=O)N[C@H]1CSSC[C@@H](C(=O)N(C)[C@H](C(=O)N[C@@H](CCCCN)C(=O)N[C@@H](CCCCN)C(N)=O)[C@@H](C)CC)NC(=O)[C@H](CCCNC(=N)N)NC(=O)[C@H](Cc2c[nH]cn2)NC(=O)[C@H](C)NC(=O)CN(C)C(=O)[C@H](Cc2c[nH]c3ccccc23)NC(=O)[C@H](CC(=O)O)NC(=O)[C@H](CCC(N)=O)NC(=O)[C@H](Cc2cn(C)c3ccccc23)NC(=O)[C@H](C(C)C)NC1=O : 85.2

* * *

// human C3b (Homo sapiens) Kd records
One number for each entry, in nM.

compound | Kd [nM]
CC[C@H](C)[C@H](NC(=O)[C@@H](Cc1ccc(O)cc1)NC(=O)CCOCCOCCOCCOCCOCCOCCOCCOCCOCCOCCOCCOCCOCCOCCOCCOCCOCCOCCOCCOCCOCCOCCOCCOC)C(=O)N[C@H]1CSSC[C@@H](C(=O)N(C)[C@H](C(N)=O)[C@@H](C)CC)NC(=O)[C@H](CCCNC(=N)N)NC(=O)[C@H](Cc2c[nH]cn2)NC(=O)[C@H](C)NC(=O)CN(C)C(=O)[C@H](Cc2c[nH]c3ccccc23)NC(=O)[C@H](CC(=O)O)NC(=O)[C@H](CCC(N)=O)NC(=O)[C@H](Cc2cn(C)c3ccccc23)NC(=O)[C@H](C(C)C)NC1=O | 3.93
CC[C@H](C)[C@H](NC(=O)[C@H](N)Cc1ccc(O)cc1)C(=O)N[C@H]1CSSC[C@@H](C(=O)N(C)[C@H](C(N)=O)[C@@H](C)CC)NC(=O)[C@H](CCCNC(=N)N)NC(=O)[C@H](Cc2c[nH]cn2)NC(=O)[C@H](C)NC(=O)CN(C)C(=O)[C@H](Cc2c[nH]c3ccccc23)NC(=O)[C@H](CC(=O)O)NC(=O)[C@H](CCC(N)=O)NC(=O)[C@H](Cc2cn(C)c3ccccc23)NC(=O)[C@H](C(C)C)NC1=O [Cp40, reference compound] | 0.53
CC[C@H](C)[C@H](NC(=O)[C@H](N)Cc1ccc(O)cc1)C(=O)N[C@H]1CSSC[C@@H](C(=O)N(C)[C@H](C(=O)N[C@@H](CCCCN)C(=O)N[C@@H](CCCCN)C(=O)N[C@@H](CCCCN)C(N)=O)[C@@H](C)CC)NC(=O)[C@H](CCCNC(=N)N)NC(=O)[C@H](Cc2c[nH]cn2)NC(=O)[C@H](C)NC(=O)CN(C)C(=O)[C@H](Cc2c[nH]c3ccccc23)NC(=O)[C@H](CC(=O)O)NC(=O)[C@H](CCC(N)=O)NC(=O)[C@H](Cc2cn(C)c3ccccc23)NC(=O)[C@H](C(C)C)NC1=O | 0.21

Now consider the entry below.
Form field Kd, entry CC[C@H](C)[C@H](NC(=O)[C@@H](Cc1ccc(O)cc1)NC(=O)CCOCCOCCOCCOCCOCCOCCOCCOCCOCCOCCOCCOC)C(=O)N[C@H]1CSSC[C@@H](C(=O)N(C)[C@H](C(N)=O)[C@@H](C)CC)NC(=O)[C@H](CCCNC(=N)N)NC(=O)[C@H](Cc2c[nH]cn2)NC(=O)[C@H](C)NC(=O)CN(C)C(=O)[C@H](Cc2c[nH]c3ccccc23)NC(=O)[C@H](CC(=O)O)NC(=O)[C@H](CCC(N)=O)NC(=O)[C@H](Cc2cn(C)c3ccccc23)NC(=O)[C@H](C(C)C)NC1=O : 2.58

* * *

# assay remarks: physchem
# measurement parameters: pH 7.4, Conc. (mg/ml), solubility in PBS
parameter measured: solubility

Form field solubility, entry CC[C@H](C)[C@H](NC(=O)[C@H](N)Cc1ccc(O)cc1)C(=O)N[C@H]1CSSC[C@@H](C(=O)N(C)[C@H](C(=O)N[C@@H](CCCCN)C(=O)N[C@@H](CCCCN)C(=O)N[C@@H](CCCCN)C(N)=O)[C@@H](C)CC)NC(=O)[C@H](CCCNC(=N)N)NC(=O)[C@H](Cc2c[nH]cn2)NC(=O)[C@H](C)NC(=O)CN(C)C(=O)[C@H](Cc2c[nH]c3ccccc23)NC(=O)[C@H](CC(=O)O)NC(=O)[C@H](CCC(N)=O)NC(=O)[C@H](Cc2cn(C)c3ccccc23)NC(=O)[C@H](C(C)C)NC1=O : > 100 mg/mL

* * *

# measurement parameters: at the stated concentration; indicator paper
For each of the compounds below, state its pH of the peptide solution in PBS.
Give bare numbers.

# return pH of the peptide solution in PBS for each item in the list
1. CC[C@H](C)[C@H](NC(=O)[C@H](N)Cc1ccc(O)cc1)C(=O)N[C@H]1CSSC[C@@H](C(=O)N(C)[C@H](C(=O)N[C@@H](CCCCN)C(=O)N[C@@H](CCCCN)C(=O)N[C@@H](CCCCN)C(N)=O)[C@@H](C)CC)NC(=O)[C@H](CCCNC(=N)N)NC(=O)[C@H](Cc2c[nH]cn2)NC(=O)[C@H](C)NC(=O)CN(C)C(=O)[C@H](Cc2c[nH]c3ccccc23)NC(=O)[C@H](CC(=O)O)NC(=O)[C@H](CCC(N)=O)NC(=O)[C@H](Cc2cn(C)c3ccccc23)NC(=O)[C@H](C(C)C)NC1=O
2. CC[C@H](C)[C@H](NC(=O)[C@H](N)Cc1ccc(O)cc1)C(=O)N[C@H]1CSSC[C@@H](C(=O)N(C)[C@H](C(N)=O)[C@@H](C)CC)NC(=O)[C@H](CCCNC(=N)N)NC(=O)[C@H](Cc2c[nH]cn2)NC(=O)[C@H](C)NC(=O)CN(C)C(=O)[C@H](Cc2c[nH]c3ccccc23)NC(=O)[C@H](CC(=O)O)NC(=O)[C@H](CCC(N)=O)NC(=O)[C@H](Cc2cn(C)c3ccccc23)NC(=O)[C@H](C(C)C)NC1=O [Cp40, reference compound]
3. CC[C@H](C)[C@H](NC(=O)[C@H](N)Cc1ccc(O)cc1)C(=O)N[C@H]1CSSC[C@@H](C(=O)N(C)[C@H](C(=O)N[C@@H](CCCCN)C(N)=O)[C@@H](C)CC)NC(=O)[C@H](CCCNC(=N)N)NC(=O)[C@H](Cc2c[nH]cn2)NC(=O)[C@H](C)NC(=O)CN(C)C(=O)[C@H](Cc2c[nH]c3ccccc23)NC(=O)[C@H](CC(=O)O)NC(=O)[C@H](CCC(N)=O)NC(=O)[C@H](Cc2cn(C)c3ccccc23)NC(=O)[C@H](C(C)C)NC1=O

1: 8.5; 2: 7.5; 3: 7.5

* * *

# system tested: human C3b (Homo sapiens)
# Construct: purchased Complement Technology, Inc., Tyler, TX
# Sequence (P01024 23-667 limits assumed): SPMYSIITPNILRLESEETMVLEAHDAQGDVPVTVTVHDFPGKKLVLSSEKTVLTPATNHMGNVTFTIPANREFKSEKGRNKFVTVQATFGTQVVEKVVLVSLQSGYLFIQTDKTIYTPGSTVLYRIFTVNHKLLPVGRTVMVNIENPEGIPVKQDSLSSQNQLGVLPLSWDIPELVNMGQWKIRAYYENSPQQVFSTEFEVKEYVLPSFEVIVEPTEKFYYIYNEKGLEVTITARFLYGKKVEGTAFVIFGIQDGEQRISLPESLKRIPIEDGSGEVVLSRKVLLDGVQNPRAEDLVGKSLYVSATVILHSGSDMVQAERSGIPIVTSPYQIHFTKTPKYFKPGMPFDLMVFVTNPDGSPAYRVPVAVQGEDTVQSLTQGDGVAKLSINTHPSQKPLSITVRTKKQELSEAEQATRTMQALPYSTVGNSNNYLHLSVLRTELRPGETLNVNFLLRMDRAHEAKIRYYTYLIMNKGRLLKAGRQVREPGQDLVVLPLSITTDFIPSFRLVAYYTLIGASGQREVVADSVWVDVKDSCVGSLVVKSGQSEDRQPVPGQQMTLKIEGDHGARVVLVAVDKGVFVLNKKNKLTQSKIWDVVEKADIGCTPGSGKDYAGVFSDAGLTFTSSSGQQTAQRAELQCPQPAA
# Sequence (P01024 749-1663 partner limits assumed): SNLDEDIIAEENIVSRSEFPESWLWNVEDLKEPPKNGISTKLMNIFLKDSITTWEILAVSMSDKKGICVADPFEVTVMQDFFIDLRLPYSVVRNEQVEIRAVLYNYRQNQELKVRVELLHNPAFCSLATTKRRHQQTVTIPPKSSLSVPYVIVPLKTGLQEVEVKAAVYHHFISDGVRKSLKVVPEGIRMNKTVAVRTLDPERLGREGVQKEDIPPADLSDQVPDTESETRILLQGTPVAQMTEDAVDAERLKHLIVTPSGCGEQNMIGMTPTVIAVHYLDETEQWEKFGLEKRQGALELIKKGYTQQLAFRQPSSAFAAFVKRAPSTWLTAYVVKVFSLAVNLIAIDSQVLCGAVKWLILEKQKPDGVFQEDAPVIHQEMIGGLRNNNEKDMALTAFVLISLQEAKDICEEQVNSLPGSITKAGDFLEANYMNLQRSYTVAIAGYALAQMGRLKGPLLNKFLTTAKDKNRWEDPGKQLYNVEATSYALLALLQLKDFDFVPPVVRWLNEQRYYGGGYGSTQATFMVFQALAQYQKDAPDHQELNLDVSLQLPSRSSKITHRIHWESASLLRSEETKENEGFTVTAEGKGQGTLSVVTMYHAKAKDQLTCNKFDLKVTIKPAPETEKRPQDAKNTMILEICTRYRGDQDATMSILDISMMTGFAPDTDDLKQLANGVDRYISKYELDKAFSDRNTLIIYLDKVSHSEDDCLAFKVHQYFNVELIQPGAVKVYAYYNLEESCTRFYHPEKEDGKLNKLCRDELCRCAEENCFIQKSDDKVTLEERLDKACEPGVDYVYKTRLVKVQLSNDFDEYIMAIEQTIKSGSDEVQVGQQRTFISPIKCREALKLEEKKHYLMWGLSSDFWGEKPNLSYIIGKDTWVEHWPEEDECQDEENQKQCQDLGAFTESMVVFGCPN
# assay remarks: SPR binding affinity and kinetic profile with immobilized C3b
# measurement parameters: 25 °C, 1:1 Langmuir model
parameter measured: kd, dissociation constant

Below, each entry is followed by its recorded kd, dissociation constant result.
molecule | system tested | result
CC[C@H](C)[C@H](NC(=O)[C@H](N)Cc1ccc(O)cc1)C(=O)N[C@H]1CSSC[C@@H](C(=O)N(C)[C@H](C(N)=O)[C@@H](C)CC)NC(=O)[C@H](CCCNC(=N)N)NC(=O)[C@H](Cc2c[nH]cn2)NC(=O)[C@H](C)NC(=O)CN(C)C(=O)[C@H](Cc2c[nH]c3ccccc23)NC(=O)[C@H](CC(=O)O)NC(=O)[C@H](CCC(N)=O)NC(=O)[C@H](Cc2cn(C)c3ccccc23)NC(=O)[C@H](C(C)C)NC1=O [Cp40, reference compound] | human C3b (Homo sapiens) | 1.84 ± 0.40 10^−3s^−1
CC[C@H](C)[C@H](NC(=O)[C@@H](Cc1ccc(O)cc1)NC(=O)CCOCCOCCOCCOCCOCCOCCOCCOCCOCCOCCOCCOCCOCCOCCOCCOCCOCCOCCOCCOCCOCCOCCOCCOC)C(=O)N[C@H]1CSSC[C@@H](C(=O)N(C)[C@H](C(N)=O)[C@@H](C)CC)NC(=O)[C@H](CCCNC(=N)N)NC(=O)[C@H](Cc2c[nH]cn2)NC(=O)[C@H](C)NC(=O)CN(C)C(=O)[C@H](Cc2c[nH]c3ccccc23)NC(=O)[C@H](CC(=O)O)NC(=O)[C@H](CCC(N)=O)NC(=O)[C@H](Cc2cn(C)c3ccccc23)NC(=O)[C@H](C(C)C)NC1=O [mPEG(1056)-Cp40] | human C3b (Homo sapiens) | 2.80 ± 0.95 10^−3s^−1
CC[C@H](C)[C@H](NC(=O)[C@@H](Cc1ccc(O)cc1)NC(=O)CCOCCOCCOCCOCCOCCOCCOCCOCCOCCOCCOCCOC)C(=O)N[C@H]1CSSC[C@@H](C(=O)N(C)[C@H](C(N)=O)[C@@H](C)CC)NC(=O)[C@H](CCCNC(=N)N)NC(=O)[C@H](Cc2c[nH]cn2)NC(=O)[C@H](C)NC(=O)CN(C)C(=O)[C@H](Cc2c[nH]c3ccccc23)NC(=O)[C@H](CC(=O)O)NC(=O)[C@H](CCC(N)=O)NC(=O)[C@H](Cc2cn(C)c3ccccc23)NC(=O)[C@H](C(C)C)NC1=O [mPEG(528)-Cp40] | human C3b (Homo sapiens) | 2.45 ± 0.28 10^−3s^−1
CC[C@H](C)[C@H](NC(=O)[C@H](N)Cc1ccc(O)cc1)C(=O)N[C@H]1CSSC[C@@H](C(=O)N(C)[C@H](C(=O)N[C@@H](CCCCN)C(N)=O)[C@@H](C)CC)NC(=O)[C@H](CCCNC(=N)N)NC(=O)[C@H](Cc2c[nH]cn2)NC(=O)[C@H](C)NC(=O)CN(C)C(=O)[C@H](Cc2c[nH]c3ccccc23)NC(=O)[C@H](CC(=O)O)NC(=O)[C@H](CCC(N)=O)NC(=O)[C@H](Cc2cn(C)c3ccccc23)NC(=O)[C@H](C(C)C)NC1=O [Cp40-K] | human C3b (Homo sapiens) | 1.85 ± 0.50 10^−3s^−1
CC[C@H](C)[C@H](NC(=O)[C@H](N)Cc1ccc(O)cc1)C(=O)N[C@H]1CSSC[C@@H](C(=O)N(C)[C@H](C(=O)N[C@@H](CCCCN)C(=O)N[C@@H](CCCCN)C(N)=O)[C@@H](C)CC)NC(=O)[C@H](CCCNC(=N)N)NC(=O)[C@H](Cc2c[nH]cn2)NC(=O)[C@H](C)NC(=O)CN(C)C(=O)[C@H](Cc2c[nH]c3ccccc23)NC(=O)[C@H](CC(=O)O)NC(=O)[C@H](CCC(N)=O)NC(=O)[C@H](Cc2cn(C)c3ccccc23)NC(=O)[C@H](C(C)C)NC1=O [Cp40-KK] | human C3b (Homo sapiens) | 1.52 ± 0.25 10^−3s^−1

Form field kd, dissociation constant, entry CC[C@H](C)[C@H](NC(=O)[C@H](N)Cc1ccc(O)cc1)C(=O)N[C@H]1CSSC[C@@H](C(=O)N(C)[C@H](C(=O)N[C@@H](CCCCN)C(=O)N[C@@H](CCCCN)C(=O)N[C@@H](CCCCN)C(N)=O)[C@@H](C)CC)NC(=O)[C@H](CCCNC(=N)N)NC(=O)[C@H](Cc2c[nH]cn2)NC(=O)[C@H](C)NC(=O)CN(C)C(=O)[C@H](Cc2c[nH]c3ccccc23)NC(=O)[C@H](CC(=O)O)NC(=O)[C@H](CCC(N)=O)NC(=O)[C@H](Cc2cn(C)c3ccccc23)NC(=O)[C@H](C(C)C)NC1=O [Cp40-KKK] : 1.24 ± 0.42 10^−3s^−1
